// reported growth per item
Tested on: UACC-62 melanoma
Assay: NCI-60 one-dose screen, 48 h (100 = growth as untreated, 0 = no growth, -100 = all killed)
Details: 10 µM unless noted
Compounds without any hit were thinned out: in the full panel of roughly 83,000, 20% have a hit. The source made the active and inactive calls. Rule for the calls: active = growth percent below 10; inactive = the rest.
assay-metric: growth

| compound | observed-value |
| --- | --- |
| CC(C)CCC[C@@H](C)[C@H]1CCC2C3=CCC4C(=O)C=CC(=O)C4C3CC[C@@]21C (stereo not given in full) | 28.7% (inactive) |
| CCOc1ccc(-c2nc3ccc(-c4nc5ccc(N6CCN(C)CC6)cc5[nH]4)cc3[nH]2)cc1OCC | -14.3% (active) |
| CC1=CC(=O)C(C(C)C)=CC1=Nc1cc(Br)c(O)c(Br)c1 | 22.7% (inactive) |
| COc1cccc(-c2cnco2)c1OCc1c(C)c(COc2c(OC)cccc2-c2cnco2)c(C)c(COc2c(OC)cccc2-c2cnco2)c1C | 42.2% (inactive) |
| O=C(c1ccccc1)c1ccc(N2C(=O)C3C4c5ccccc5C(/C=C/C(=O)c5ccccn5)(c5ccccc54)C3C2=O)cc1 (stereo not given) | 21% (inactive) |
| O=C1/C(=C/c2ccc([N+](=O)[O-])cc2)COc2ccc(O)c(O)c21 | -19.2% (active) |
| O=S(=O)(NCCNc1cc(-c2c(-c3cccc(O)c3)nc3sccn23)ccn1)c1ccc(Cl)cc1 | 64.8% (inactive) |
| CCC(C)NCc1ccccc1 (stereo not given) | 95.3% (inactive) |
| N=C(N)c1ccc(-c2ccc(-c3ccc(Cl)cc3Cl)o2)nc1 | 101% (inactive) |
| CCC(O)(C(c1ccccc1)c1ccccn1)C(c1ccccc1)c1ccccn1 (stereo not given) | 113% (inactive) |
| O=C(c1ccccc1)c1ccc(Cl)c([N+](=O)[O-])c1 | 93.2% (inactive) |
| CC1(C)N=C(N)N=C(N)N1c1cccc(CN)c1 | 95.9% (inactive) |
| CC(C)n1nc(C#Cc2cccc3cc(-c4cccc(C(F)(F)F)c4)ncc23)c2c(N)ncnc21 | 66.6% (inactive) |
| Clc1ccc(-c2nc(NCCc3ccccc3)nc3c(NCCc4ccccc4)cnn23)cc1 | 73.2% (inactive) |
| CCn1c(Sc2nnc(NC(C)=O)s2)nc2c1c(=O)n(C)c(=O)n2C | 93.3% (inactive) |
| Cc1cc(-c2ccc(N(C)C)cc2)c2sc(=O)[nH]c2n1 | 42.5% (inactive) |
| COc1cc2oc3cc(C)oc(=O)c3c2cc1OC | 90.9% (inactive) |
| CC(=O)C(C(C)=O)c1nc2sc3cc(Cl)ccc3n2c(=N)c1C#N | 61.6% (inactive) |
| CCCCN(Cc1ccc(C(=O)NO)cc1)C(=O)Nc1ccc(OCCCCCCCCCn2cc(CCCCC(=O)N[C@H](C(=O)N3C[C@H](O)C[C@H]3C(=O)NCc3ccc(-c4scnc4C)cc3)C(C)(C)C)nn2)cc1 | 35.9% (inactive) |
| COc1ccc(CN2C(=O)/C(=C\c3cc(OC)c(OC)c(OC)c3)c3ccccc32)cc1 | -8.88% (active) |
| Nc1ccn(C2OC(F)(CO)C(O)C2F)c(=O)n1 (stereo not given) | 49.3% (inactive) |
| Cc1cc(=O)[nH]c(N/N=C/c2cc(Br)ccc2O)n1 | 4.29% (active) |
| COc1cc2c(cc1OC)-c1ccc3cc4c(cc3c1N(CCN1CCCC1)C2)OCO4 | 36.1% (inactive) |
| C=C(C)[C@@H]1CC[C@]2(CNCCO)CC[C@]3(C)[C@H](CC[C@@H]4[C@@]5(C)CCC(N)[C@@](C)(CO)[C@@H]5CC[C@]43C)[C@@H]12 (stereo not given in full) | -75.7% (active) |
| NS(=O)(=O)c1cnccc1-n1ccc(=O)c(S(N)(=O)=O)c1 | 96.9% (inactive) |
| CCCCCCCCn1cc(C2=C(c3coc4ccc(OC)cc34)C(=O)NC2=O)c2ccccc21 | 96.2% (inactive) |
| CCCCOc1ccc(NC(=O)n2nc(N=NN(C)C)c3ccc(Cl)cc32)cc1 | 86.4% (inactive) |
| CCN(CC)N=Nc1nn(C(=O)Nc2ccc(Cc3ccccc3)cc2)c2ccc(Cl)cc12 | 8.7% (active) |
| COC(=O)c1ccc(CSc2nnc(-c3ccncc3)o2)cc1 | 97.5% (inactive) |
| N#Cc1c(Oc2ccc([N+](=O)[O-])cc2)nc2sc3cc(Cl)ccc3n2c1=N | 79.3% (inactive) |
| COc1ccc(/C(C)=C(\c2ccc(Cl)cc2)c2ccc(OCCN(C)C)cc2)cc1F | 42.3% (inactive) |
| COc1ccc(-c2cncnc2N)cc1OC | 112% (inactive) |
| CC(=O)Nc1ccc(-c2cc3c(NCc4ccc(F)cc4)ncnc3s2)cc1 | 73% (inactive) |
| O=C1Nc2ccccc2SC1c1ccccc1Cl (stereo not given) | 101% (inactive) |
| O=C1Nc2ccccc2/C1=N/N=C/c1ccsc1 | 93% (inactive) |
| Cc1c(C(=O)O[C@H]2[C@@H]3[C@H](C)CC[C@H]3[C@]3(C)O[C@@]2(C2CCCCC2)C[C@H]3OC(=O)CO)ccc2ccccc12 | 61.3% (inactive) |
| Fc1ccc(Nc2nc3nonc3nc2Nc2ccc(F)cc2)cc1 | 3.98% (active) |
| Cc1nc2ccc(C(=O)NCc3cc(C(=O)O)c(C)o3)cc2nc1C | 94.8% (inactive) |
| CC1(C)CC(=O)c2c(ccc(C(=O)C[C@H](N)CO)c2N)O1 | 11% (inactive) |
| CCCCCCCCc1cc[n+](CC(=O)c2ccc(Br)cc2)cc1 | -32.9% (active) |
